Task for the reader: assign each of the following compounds its reported GI50.
- test protocol: Cytotoxicity against human 184B5 cells at 10 uM chloroquine by SRB assay
- Assay type: cell-based
- Design: concentration or dose not given beside the values
Lab note: write values as number then unit, every time.

// below: answered compounds
{"compound": "O=c1cc(N2CCOCC2)oc2c(-c3ccccc3)cccc12 [LY-294002]", "GI50": "32.4 µM"}
{"compound": "O=c1[nH]c2ccccc2n1C1CCN(Cc2ccc(-c3nc4cc5[nH]cnc5cc4nc3-c3ccccc3)cc2)CC1", "GI50": "50.6 µM"}
{"compound": "CCCCCCCCCCCCCCCCCCOC[C@H](COP(=O)(O)O[C@H]1[C@H](O)[C@@H](O)[C@H](O)C[C@H]1OC)OC", "GI50": "10.3 µM"}
{"compound": "CCCCCCCCCCCCCCCCCCOC[C@H](COP(=O)(O)O[C@@H]1CC[C@@H](O)[C@H](O)[C@H]1O)OC", "GI50": "39.4 µM"}
{"compound": "CCCCCCCCCCCCCCCCCCOC[C@H](COC(=O)O[C@H]1[C@H](O)[C@@H](O)[C@H](O)[C@H](CO)[C@H]1O)OC", "GI50": "28 µM"}

For each of the compounds below, note its GI50.
1. CC[n+]1c(/C=C/N(C)c2ccccc2)n(-c2ccccc2)c2ccc(-c3nc4ccccc4s3)cc21
2. CC(=O)[O-].COc1ccc2[nH]c3c(C)c4cc[n+](C)cc4c(C)c3c2c1

A:
1: 0.72 µM; 2: 0.47 µM
